Where do the numbers come from? From paper PMC4336329.

# Measured On: human ether-à-go-go-related gene (hERG) potassium channel (human)
# Experimental Protocol: primary screen, population patch clamp on CHO cells stably expressing hERG; higher = less effect of the substance
About 14,000 (4.5%) of roughly 310,000 compounds showed an effect of 50% or more. Effects have a minus sign here. Many of the other results were omitted from the sample, so strong results are more common in it than they were.
Cut-off -30% on hERG current change (%, negative = inhibition) at 10uM, inclusive. At or above means 1; below means 0.

Record excerpt, results attached:
| Molecule | Assigned Label |
| --- | --- |
| COCCN(Cc1cc2cc3c(cc2nc1Cl)OCO3)C(=O)Nc1ccc(OC)cc1 | 1 |
| COc1ccc(C(CNC(=O)c2oc3ccc(OC)cc3c2C)N2CCCC2)cc1 (stereo not drawn) | 0 |
| Cl.O=C(CN1CCCC(O)C1)N1c2ccccc2Sc2ccc(C(F)(F)F)cc21 (stereo not drawn) | 1 |

Task item: For this molecule, is measured hERG current change (%, negative = inhibition) at 10uM -30% or higher? COc1ccc(C(CNC(=O)c2oc3ccc(Cl)cc3c2C)N2CCCCC2)cc1 (stereo not drawn)
Reply: 1

Task item: For this molecule, is measured hERG current change (%, negative = inhibition) at 10uM -30% or higher? `Cc1nnc(SCC(=O)Nc2cc(S(C)(=O)=O)ccc2Cl)n1Cc1ccccc1`
Reply: 1

Task item: For this molecule, is measured hERG current change (%, negative = inhibition) at 10uM -30% or higher? CC(=O)C12CCCCC1CC1C3CC(C)C4(O)CC(=O)CCC4(C)C3CCC12C (stereo not drawn)
Reply: 1

Task item: For this molecule, is measured hERG current change (%, negative = inhibition) at 10uM -30% or higher? `COc1ccc(NC(=O)NCCN2CCc3ccccc3C2)cc1`
Reply: 0

Task item: For this molecule, is measured hERG current change (%, negative = inhibition) at 10uM -30% or higher? COc1ccc(C(CNC(=O)c2ccc(-c3ccccc3Cl)o2)N2CCOCC2)cc1 (stereo not drawn)
Reply: 1

Task item: For this molecule, is measured hERG current change (%, negative = inhibition) at 10uM -30% or higher? COc1ccc(C(CNC(=O)c2oc3ccccc3c2C)N2CCCC2)cc1 (stereo not drawn)
Reply: 0

Task item: For this molecule, is measured hERG current change (%, negative = inhibition) at 10uM -30% or higher? O=C1CCCCC1C(Nc1ccc(Br)cc1)c1ccccc1 (stereo not drawn)
Reply: 1

====

# Measured On: human ether-à-go-go-related gene (hERG) potassium channel (human, UniProt Q12809)
# Sequence (Q12809 whole entry, looked up): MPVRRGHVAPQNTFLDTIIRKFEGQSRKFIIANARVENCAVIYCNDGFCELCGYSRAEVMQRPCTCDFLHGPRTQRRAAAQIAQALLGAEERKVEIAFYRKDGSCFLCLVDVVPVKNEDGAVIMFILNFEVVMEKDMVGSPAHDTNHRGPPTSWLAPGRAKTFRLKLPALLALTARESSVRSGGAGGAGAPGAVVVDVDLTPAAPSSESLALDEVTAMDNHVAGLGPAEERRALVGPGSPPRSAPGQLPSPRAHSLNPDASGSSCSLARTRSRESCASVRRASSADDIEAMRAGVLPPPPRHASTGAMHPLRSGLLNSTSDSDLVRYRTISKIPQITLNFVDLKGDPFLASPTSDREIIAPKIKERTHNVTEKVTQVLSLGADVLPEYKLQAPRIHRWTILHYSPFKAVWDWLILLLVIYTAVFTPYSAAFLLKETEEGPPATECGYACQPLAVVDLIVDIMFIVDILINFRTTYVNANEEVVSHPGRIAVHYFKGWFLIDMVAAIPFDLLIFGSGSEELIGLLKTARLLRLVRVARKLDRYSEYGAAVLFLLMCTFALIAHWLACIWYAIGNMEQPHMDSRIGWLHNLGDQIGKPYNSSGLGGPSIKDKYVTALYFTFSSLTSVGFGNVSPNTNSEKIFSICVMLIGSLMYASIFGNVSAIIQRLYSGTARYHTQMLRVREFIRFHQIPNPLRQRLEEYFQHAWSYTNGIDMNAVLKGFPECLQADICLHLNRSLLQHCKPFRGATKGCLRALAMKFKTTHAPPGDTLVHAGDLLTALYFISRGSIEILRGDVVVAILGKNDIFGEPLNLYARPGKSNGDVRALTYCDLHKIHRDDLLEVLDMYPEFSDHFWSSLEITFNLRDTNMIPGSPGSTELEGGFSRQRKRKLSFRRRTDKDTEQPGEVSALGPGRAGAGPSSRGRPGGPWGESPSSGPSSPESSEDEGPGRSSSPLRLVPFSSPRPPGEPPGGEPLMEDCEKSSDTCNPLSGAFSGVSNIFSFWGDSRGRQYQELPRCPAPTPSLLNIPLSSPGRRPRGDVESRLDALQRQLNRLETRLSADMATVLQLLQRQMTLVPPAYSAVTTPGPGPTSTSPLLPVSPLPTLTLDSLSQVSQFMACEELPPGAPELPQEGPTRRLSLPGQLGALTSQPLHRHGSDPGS
# Experimental Protocol: primary screen, population patch clamp on CHO cells stably expressing hERG; higher = less effect of the substance
Out of some 310,000 compounds screened, about 14,000 (4.5%) showed an effect of 50% or more. Effects have a minus sign here. The sample holds strong results, similar compounds and a random draw of the others, so the mix is not that of the screen.
Reported Metric: hERG current change (%, negative = inhibition) at 10uM (%)
Respond with the bare value in %.

// below: answered compounds
| Compound | Measured On | Result |
| --- | --- | --- |
| O=S(=O)(c1ccccc1C(F)(F)F)N1CCN(S(=O)(=O)c2ccccc2C(F)(F)F)CC1 | human ether-à-go-go-related gene (hERG) potassium channel (human, UniProt Q12809) | -2.32 |
| CC(C)CNc1c2c(nc3ccccc13)CCC2.Cl | human ether-à-go-go-related gene (hERG) potassium channel (human, UniProt Q12809) | -69.2 |
| CCOc1ccc2c(c1)C(N(CCN1CCOCC1)C(=O)Nc1ccccc1)CC(C)(C)O2 (stereo not drawn) | human ether-à-go-go-related gene (hERG) potassium channel (human, UniProt Q12809) | -19.1 |
| COc1ccc2c(c1)c(=O)oc1c(C)c(OCc3cc(C(=O)O)oc3C)ccc12 | human ether-à-go-go-related gene (hERG) potassium channel (human, UniProt Q12809) | 22.5 |
| Cc1ccccc1C(=O)Oc1cccc(Nc2ncnc3ccccc23)c1 | human ether-à-go-go-related gene (hERG) potassium channel (human, UniProt Q12809) | -3.38 |
| CCCOc1ccc(-c2nnn(CC(=O)N3CCCCC3)n2)cc1 | human ether-à-go-go-related gene (hERG) potassium channel (human, UniProt Q12809) | 12.9 |
| Cl.c1ccc(CNc2c3c(nc4ccccc24)CCC3)cc1 | human ether-à-go-go-related gene (hERG) potassium channel (human, UniProt Q12809) | -75.3 |
| Cc1cc(NC(=O)CSc2nc(-c3ccc(Br)cc3)nc3c2c(=O)n(C)c(=O)n3C)no1 | human ether-à-go-go-related gene (hERG) potassium channel (human, UniProt Q12809) | -8.93 |

Task item: Look up hERG current change (%, negative = inhibition) at 10uM: `COc1ccc(NC(=O)N2CCC(n3cnc4ccccc43)CC2)cc1`
Reply: -28.5

Task item: Look up hERG current change (%, negative = inhibition) at 10uM: CCOc1ccc2c(c1)C(N(CCN1CCOCC1)C(=S)Nc1ccccc1OC)CC(C)(C)O2 (stereo not drawn)
Reply: -24.9

Task item: Look up hERG current change (%, negative = inhibition) at 10uM: `O=S(=O)(Nc1ccccc1Cl)c1cc(NC(=S)NCCN2CCOCC2)ccc1Cl`
Reply: 14

Task item: Look up hERG current change (%, negative = inhibition) at 10uM: `NC(=O)NOCc1ncc(C(F)(F)F)cc1Cl`
Reply: 10.4

Task item: Look up hERG current change (%, negative = inhibition) at 10uM: `CC(C)(C)OC(=O)NNc1c2ccccc2nc2ccccc12`
Reply: -27.7

Task item: Look up hERG current change (%, negative = inhibition) at 10uM: `COCCN(CCOC)C(=S)Nc1ccccc1Cl`
Reply: 6.62

Task item: Look up hERG current change (%, negative = inhibition) at 10uM: `OCCNc1c2c(nc3ccccc13)CCCC2`
Reply: -39

Task item: Look up hERG current change (%, negative = inhibition) at 10uM: `Cc1c2ccccc2nc2ccccc12`
Reply: -1.84

Task item: Look up hERG current change (%, negative = inhibition) at 10uM: `COC(=O)c1coc(-c2ccc(C)cc2)c1C(=O)OC`
Reply: 1.6

Task item: Look up hERG current change (%, negative = inhibition) at 10uM: CC(Oc1ccc2oc(-c3ccccc3)c(C(=O)O)c2c1)C(=O)O (stereo not drawn)
Reply: 14.7

Task item: Look up hERG current change (%, negative = inhibition) at 10uM: CCOc1ccc2c(c1)C(N(CCN1CCOCC1)C(=O)Nc1ccc(OC)cc1OC)CC(C)(C)O2 (stereo not drawn)
Reply: -51.9

Task item: Look up hERG current change (%, negative = inhibition) at 10uM: `CC(C)(C)Nc1c2ccccc2nc2ccccc12`
Reply: -68.2

Task item: Look up hERG current change (%, negative = inhibition) at 10uM: Cc1ccc(S(=O)(=O)NC(C)c2ccccc2)cc1[N+](=O)[O-] (stereo not drawn)
Reply: 9.16

====

# Measured On: human ether-à-go-go-related gene (hERG) potassium channel (human, UniProt Q12809)
# Experimental Protocol: primary screen, population patch clamp on CHO cells stably expressing hERG; higher = less effect of the substance
# Method: Briefly, Chinese hamster ovary (CHO) cells stably expressing the hERG channel were dislodged from tissue culture flasks and dispensed into PPC plates. […] During the recording, background leak currents were estimated by a 100 ms step to -80 mV from an initial holding potential of -70 mV and subtracted from the subsequent current measurement. The campaign was conducted in two phases using slight differences in recording protocol. […]
The whole screen tested about 310,000 compounds, of which about 14,000 (4.5%) showed an effect of 50% or more. Effects have a minus sign here. This excerpt belongs to a sample that is enriched for strong results.
Reported Metric: hERG current change (%, negative = inhibition) at 10uM (%)
Respond with the bare value in %.

| Input Smiles | Measured On | Result |
| --- | --- | --- |
| Cc1cccc(NC(=O)CSc2nccn2Cc2ccco2)c1 | human ether-à-go-go-related gene (hERG) potassium channel (human, UniProt Q12809) | 0.772 |

Task item: Look up hERG current change (%, negative = inhibition) at 10uM: `CCCCN1CCc2c(c3ccccc3n2Cc2ccccc2)C1`
Reply: -72.9

Task item: Look up hERG current change (%, negative = inhibition) at 10uM: `Cc1ccc(CCn2c3c(c4ccccc42)CN(C)CC3)cn1`
Reply: -3.74

====

Catalogue of hERG current change (%, negative = inhibition) at 10uM readings, one per entry.
# Measured On: human ether-à-go-go-related gene (hERG) potassium channel (human, UniProt Q12809)
# Experimental Protocol: primary screen, population patch clamp on CHO cells stably expressing hERG; higher = less effect of the substance
The whole screen tested about 310,000 compounds, of which about 14,000 (4.5%) showed an effect of 50% or more. The effect is printed as a negative number. The sample holds strong results, similar compounds and a random draw of the others, so the mix is not that of the screen.
Respond with the bare value in %.

// below: answered compounds
| Compound | Result |
| --- | --- |
| O=C(O)/C(=C\c1cccc(C(F)(F)F)c1)c1ccc(S(=O)(=O)N2CCCC2)s1 | 5.74 |
| N#Cc1ccc(-c2ccc(F)cc2)nc1SCC(=O)Nc1sc2c(c1C#N)CCC2 | 4.57 |
| COc1ccc(/C=C/c2cc(C(F)(F)F)[nH]c(=O)n2)cc1OC | -6.91 |
| Cc1cc(C)cc(NC(=O)CCC(=O)Nc2cc(C)on2)c1 | 8.01 |

Proceed to the following item.
Task item: API: value(readout=hERG current change (%, negative = inhibition) at 10uM, system=human ether-à-go-go-related gene (hERG) potassium channel (human, UniProt Q12809)) for record `COc1ccc(S(=O)(=O)N2CCCCCC2)cc1NC(=O)c1ccccc1`;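 further: peak tail current of the secondary pulse compared with the same well before compound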
Reply: 10.5
